Ref: paper PMC8713996

Tested on: M. tuberculosis H37Rv
protocol_details: microbe, parasite or virus in culture
Assay type: cell-based
measurement_parameters: Mycobacterium tuberculosis, read-out: MIC90 Mtb in vitro
outcome_measure: MIC90
Give your result as the value with the unit written after it.

Worked cases, answers included:
> print(dat)
                                   molecule   result
1    CC(C)C(=O)Nc1ccc(C(=O)Oc2ccccc2)c(O)c1     2 µM
2       Cc1ccc(-c2nnc3sc(Cc4ccccc4)nn23)cc1   9.9 µM
3  O=C(Nc1ccc(Cl)cc1)NC1CC2CCC1C2 (stereo not drawn)  13.6 µM

Respectfully, I request MIC90 for each entry included below.
1. O=C(OCC(=O)c1c[nH]c2ccccc12)c1ccc([N+](=O)[O-])s1
2. CCc1cccc2c(C(=O)COC(=O)c3ccc([N+](=O)[O-])s3)c[nH]c12
3. O=C(Nc1ccc(F)cc1)NC1CCCCCCC1

1: 2.2 µM; 2: 2.4 µM; 3: 19 µM

----------
Tested on: M. tuberculosis H37Rv
protocol_details: microbe, parasite or virus in culture
Assay type: cell-based
measurement_parameters: Mycobacterium tuberculosis, read-out: MIC90 Mtb in vitro
What MIC90 was measured for each of the following?
One number for each entry, in µM.

Worked cases, answers included:
> print(dat)
                                   compound  outcome.measure  numeric.readout
1  CC12CC3CC(C)(C1)CC(C(=O)Nc1nc4ccccc4s1)(C3)C2 [TBA8]            MIC90             15.8
2  COc1ccc(Cc2nn3c(-c4ccccc4)nnc3s2)cc1 [TBA29]            MIC90              3.6
3  COc1ccc(CNC(=O)c2c(C)nc3ccccn23)cc1 [TBA117]            MIC90                4
4  O=c1c2ccccc2oc2nc3n(c(=O)c12)CCCS3 [TBA161-A]            MIC90              3.8
5  Cc1nc2ccccn2c1C(=O)NCc1ccc2c(c1)OCO2 [TBA120]            MIC90              5.9

Then there is this compound:
Give the measured MIC90 of COc1cccc(OCCNC(=O)c2cc([N+](=O)[O-])cc([N+](=O)[O-])c2)c1 [TBA57] .
1.7
